Kindly state pIC50 for each of the entries shown.
Test system: A549 (lung carcinoma)
experiment: SRB cytotoxicity assay, A549
Type: cell-based, human
protocol_conditions: SRB assay, 72 h treatment, mean n = 3, SD 5-10%
Numbers only, as −log10 of the molar value.

# count of solved cases: 5
compound	endpoint_name	measurement
C=C1C[C@@]23CC[C@H]4[C@@](C)(CCC[C@@]4(C)C(=O)OCCC[n+]4ccc(/C=C/c5c[nH]c6ccccc56)cc4)[C@@H]2CC[C@]1(O)C3.[Br-] [Compound 16]	pIC50	5.52
C=C1C[C@@]23CC[C@H]4[C@@](C)(CCC[C@@]4(C)C(=O)OCC[n+]4ccc(/C=C/c5c[nH]c6ccccc56)cc4)[C@@H]2CC[C@]1(O)C3.[Br-] [Compound 8]	pIC50	5.05
CC12CCC3C(CCC4C(C)(C(=O)OCCCC[n+]5ccccc5C=Cc5c[nH]c6ccccc56)CCCC34C)(CC1=O)C2.[Br-] (stereo not drawn) [Compound 29]	pIC50	5.01
CC12CCC3C(CCC4C(C)(C(=O)OCCC[n+]5cccc(C=Cc6c[nH]c7ccccc67)c5)CCCC34C)(CC1=O)C2.[Br-] (stereo not drawn) [Compound 19]	pIC50	4.95
CC12CCC3C(CCC4C(C)(C(=O)OCCC[n+]5ccc(C=Cc6c[nH]c7ccccc67)cc5)CCCC34C)(CC1=O)C2.[Br-] (stereo not drawn) [Compound 17]	pIC50	5.47

# input for lookup
Jot down pIC50 (A549 (lung carcinoma)) of C=C1C[C@@]23CC[C@H]4[C@@](C)(CCC[C@@]4(C)C(=O)OCCCC[n+]4ccccc4/C=C/c4c[nH]c5ccccc45)[C@@H]2CC[C@]1(O)C3.[Br-] [Compound 28] .
5.12
